Biological target: GLUT1 (Homo sapiens, UniProt P11166)
Construct: endogenous in cells
Sequence (P11166 whole entry): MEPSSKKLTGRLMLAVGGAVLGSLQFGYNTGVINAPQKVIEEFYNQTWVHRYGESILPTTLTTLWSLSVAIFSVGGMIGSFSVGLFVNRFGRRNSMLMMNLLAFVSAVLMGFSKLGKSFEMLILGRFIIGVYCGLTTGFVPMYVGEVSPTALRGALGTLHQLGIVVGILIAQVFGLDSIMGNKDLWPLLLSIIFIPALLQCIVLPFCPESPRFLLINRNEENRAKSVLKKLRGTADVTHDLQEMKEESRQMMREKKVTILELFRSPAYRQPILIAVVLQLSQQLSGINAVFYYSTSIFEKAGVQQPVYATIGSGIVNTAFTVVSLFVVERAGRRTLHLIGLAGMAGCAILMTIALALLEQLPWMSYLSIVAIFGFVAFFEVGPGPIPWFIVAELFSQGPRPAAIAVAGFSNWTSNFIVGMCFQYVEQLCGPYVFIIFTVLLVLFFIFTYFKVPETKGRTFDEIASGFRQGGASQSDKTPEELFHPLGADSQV
Assay: Indirect measurement of GLUT activity by quantification of intracellular ATP levels: glucose induced ATP increase (GLUT1 inhibition)
Details: DLD1 cells; 1 mM glucose, 1 uM Rotenone, 15 min; CellTiter-Glo ATP levels; IC50 values standardized to cytochalasin B IC50 values; read-out: IC50 regarding glucose induced ATP increase (GLUT1 inhibition)
measure_name: pIC50
Give bare numbers, as −log10 of the molar value.

These solved cases illustrate the format of a correct answer.
smiles_input=CCc1noc(Cn2ncc(NC(=O)c3cc(C(N)=O)nc4ccccc34)c2C)n1 assay_system="GLUT1 (Homo sapiens, UniProt P11166)" value_observed=5.72
smiles_input=Cc1c(NC(=O)c2cc(C(N)=O)nc3cc(F)ccc23)cnn1Cc1ccc(C#N)cc1 assay_system="GLUT1 (Homo sapiens, UniProt P11166)" value_observed=8.15
smiles_input=Cc1c(NC(=O)c2cc(C(F)(F)F)nc3c(Cl)cc(Cl)cc23)cnn1Cc1ccc(F)cc1 assay_system="GLUT1 (Homo sapiens, UniProt P11166)" value_observed=6.73
smiles_input=Cc1c(NC(=O)c2cc(C(F)(F)F)nc3cc(F)c(F)cc23)cnn1Cc1ccc(F)cc1 assay_system="GLUT1 (Homo sapiens, UniProt P11166)" value_observed=6.91
smiles_input=NC(=O)c1c(NC(=O)c2cc(C(F)(F)F)nc3ccc(Br)cc23)cnn1Cc1ccc(F)cc1 assay_system="GLUT1 (Homo sapiens, UniProt P11166)" value_observed=5.90
smiles_input=COc1ccc(Cn2ncc(NC(=O)c3cc(OC)nc4ccccc34)c2C)cc1 assay_system="GLUT1 (Homo sapiens, UniProt P11166)" value_observed=7.72
smiles_input=CNC(=O)c1nc(Cn2ncc(NC(=O)c3cc(C(F)(F)F)nc4ccc(Br)cc34)c2C)no1 assay_system="GLUT1 (Homo sapiens, UniProt P11166)" value_observed=6.34
smiles_input=N#Cc1ccc(Cn2ncc(NC(=O)c3cc(C(F)(F)F)nc4ccc(Br)cc34)c2C(=O)O)cc1 assay_system="GLUT1 (Homo sapiens, UniProt P11166)" value_observed=4.99
smiles_input=Cc1c(NC(=O)c2cc(C(N)=O)nc3ccccc23)cnn1Cc1ccn(C)n1 assay_system="GLUT1 (Homo sapiens, UniProt P11166)" value_observed=6.12
smiles_input=CNC(=O)c1nc(Cn2ncc(NC(=O)c3cc(C(N)=O)nc4ccccc34)c2C)no1 assay_system="GLUT1 (Homo sapiens, UniProt P11166)" value_observed=5.65

I have 4 molecules here; please give me pIC50 for each one.
1. COc1ccc(Cn2ncc(NC(=O)c3cc(C(F)(F)F)nc4ccc(Br)cc34)c2C)cc1
2. Cc1nc(Cn2ncc(NC(=O)c3cc(C(F)(F)F)nc4ccc(Br)cc34)c2C)cs1
3. Cc1c(NC(=O)c2cc(C(N)=O)nc3ccccc23)cnn1CC1CCCCC1
4. CCS(=O)(=O)N1CCC(Cn2ncc(NC(=O)c3cc(C(N)=O)nc4ccccc34)c2C)CC1

A:
1. 8.40
2. 6.55
3. 6.46
4. 6.40
